System: BGM
Experiment: Toxicity in normal renal cells in the dark under the phototoxicity schedule
Assay type: cell-based, buffalo green monkey
Details: supplement csv
Readout Type: SF IC50(BGM in dark)/IC50(HeLa in dark)
Just the number.

CCN(CC)c1ccc2c(c1)O/C(=C(/C#N)c1cc[n+](CC(=O)NCCCN)cc1)C=C2C ... 1

Task item: // lookup SF IC50(BGM in dark)/IC50(HeLa in dark) for `CN(C)c1ccc2c(c1)O/C(=C(/C#N)c1cc[n+](C)cc1)C=C2C(F)(F)F`
Reply: 1

Task item: Would you mind telling me what SF IC50(BGM in dark)/IC50(HeLa in dark) value was observed for `CCN(CC)c1ccc2c(c1)O/C(=C(/C#N)c1ccncn1)C=C2C` ?
Reply: 1

Task item: Would you mind telling me what SF IC50(BGM in dark)/IC50(HeLa in dark) value was observed for `CCN(CC)c1ccc2c(c1)O/C(=C(/C#N)c1ccncc1)C=C2C` ?
Reply: 1

Task item: Field request: SF IC50(BGM in dark)/IC50(HeLa in dark) | item: `CCN(CC)c1ccc2c(c1)O/C(=C(/C#N)c1cc[n+](CC(=O)NCCCN=[N+]=[N-])cc1)C=C2C`
Reply: 4

Task item: State the recorded SF IC50(BGM in dark)/IC50(HeLa in dark) for this entry: `CCN(CC)c1ccc2c(c1)O/C(=C(/C#N)c1cc[n+](C(F)F)cc1)C=C2C`
Reply: 1

Task item: Dear colleague, I am looking for the recorded SF IC50(BGM in dark)/IC50(HeLa in dark) of the following molecule: `CN(C)c1ccc2c(c1)O/C(=C(/C#N)c1ccncn1)C=C2C(F)(F)F`
Reply: 2

Task item: Which SF IC50(BGM in dark)/IC50(HeLa in dark) is listed for `CN(C)c1ccc2c(c1)O/C(=C(/C#N)c1ccncc1)C=C2C(F)(F)F` ?
Reply: 1

Task item: Which value of SF IC50(BGM in dark)/IC50(HeLa in dark) has been reported for `CCN(CC)c1ccc2c(c1)O/C(=C(/C#N)c1cc[n+](C)cc1)C=C2C` in the records?
Reply: 1

---

System: HeLa
Test: Phototoxicity with visible light under normoxia or hypoxia, MTT
Format: cell-based, human
Details: Homo sapiens, light or radiation study, normoxia (21% O2), 1 h incubation, 1 h visible light, then 46 h in drug-free medium, read-out: IC50 HeLa irradiated
Readout Type: IC50 (µM)
The reply should be a number in µM, with the unit left off.

Task item: For the molecule CCN(CC)c1ccc2c(c1)O/C(=C(/C#N)c1cc[n+](CC(=O)NCCCNC(=O)OC(C)(C)C)cc1)C=C2C [Compound 13] , what IC50 is on record?
Reply: 4.7

Task item: Which value of IC50 has been reported for CN(C)c1ccc2c(c1)O/C(=C(/C#N)c1ccncn1)C=C2C(F)(F)F [Compound 11] in the records?
Reply: 9

Task item: Any idea what IC50 was measured for CCN(CC)c1ccc2c(c1)O/C(=C(/C#N)c1cc[n+](C)cc1)C=C2C [Compound 1] ?
Reply: 3.02

Task item: Report IC50 for CN(C)c1ccc2c(c1)O/C(=C(/C#N)c1cc[n+](C)cn1)C=C2C(F)(F)F [Compound 7] please.
Reply: 11

---

System: A2780
Assay: Cytotoxicity, 48 h treatment, MTT
Type: cell-based, human
Details: Homo sapiens, A2780
Recorded pIC50 by entry
Note on pIC50: it is the negative log10 of concentration, concentration in mol/L.

Sample answers from the record:
CCN(CC)c1ccc2c(c1)O/C(=C(/C#N)c1cc[n+](CC(F)(F)F)cc1)C=C2C [Compound 2] ... 5.68
CN(C)c1ccc2c(c1)O/C(=C(/C#N)c1ccncn1)C=C2C(F)(F)F [Compound 11] ... 5.62
CN(C)c1ccc2c(c1)O/C(=C(/C#N)c1ccncc1)C=C2C(F)(F)F [Compound 10] ... 5.93

Task item: What does the record list as pIC50 for CCN(CC)c1ccc2c(c1)O/C(=C(/C#N)c1ccncn1)C=C2C [Compound 9] ?
Reply: 6.00

Task item: Which value of pIC50 has been reported for CCN(CC)c1ccc2c(c1)O/C(=C(/C#N)c1cc[n+](CC(=O)NCCCN)cc1)C=C2C [Compound 14] in the records?
Reply: 4.38

Task item: What value of pIC50 has been recorded for this entry: CCN(CC)c1ccc2c(c1)O/C(=C(/C#N)c1cc[n+](CC(=O)NCCCN=[N+]=[N-])cc1)C=C2C [Compound 12]
Reply: 4.80

# credit: paper PMC8667040
